Value source: PubChem BioAssay (Tox21)

testName: qHTS assay to identify small molecule agonists of the farnesoid-X-receptor (FXR) signaling pathway - cell viability counter screen (AID 743218); note: nearly all actives have a fitted effect of over 45% in size
measurementContext: FXR-bla HEK293T viability, CellTiter-Glo luminescence, 16 h; series mostly up to 62.6 µM
Inconclusive results are not listed. Active and inactive are the calls of the source. Calls come from the whole dose curve; as a rule, active = well fitted cell-killing curve with a large enough effect in the repeat runs; inconclusive = weak or mixed curves, or effect the other way; inactive = no such curve, though single readings can be large or run the other way.
property: outcome

CCC1(C2=NCCN2)Cc2ccccc2O1 (stereo not drawn)	inactive
CC[N+]1(CCOC(=O)C(O)(c2ccccc2)c2ccccc2)CCCCC1	inactive
CN1CC[C@]23c4c5ccc(O)c4O[C@H]2[C@@H](O)CC[C@H]3[C@H]1C5	inactive

----------
testName: qHTS assay to identify small molecule agonists of the RXR signaling pathway - cell viability counter screen (AID 1159529);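 note: HEK 293T cells carrying an RXR-alpha UAS beta-lactamase reporter; nearly all actives have a fitted effect of over 50% in size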
measurementContext: RXR-alpha-bla HEK293T viability, CellTiter-Glo, 16 h; series mostly up to 76.8 µM
Inconclusive results are not listed. Activity calls are given as the source filed them. Calls come from the whole dose curve; as a rule, active = well fitted cell-killing curve with a large enough effect in the repeat runs; inconclusive = weak or mixed curves, or effect the other way; inactive = no such curve, though single readings can be large or run the other way.
property: activity change, negative = cytotoxicity

COCc1cnc(C2=NC(C)(C(C)C)C(=O)N2)c(C(=O)O)c1 (stereo unspecified)	inactive
CC(C)[C@@H](C(=O)O[C@@H](C#N)c1cccc(Oc2ccccc2)c1)c1ccc(Cl)cc1	inactive
Cc1nc2ccccc2c(=O)n1-c1ccccc1Cl	inactive
CC(C)C1(C)N=C(c2ncccc2C(=O)O)NC1=O (stereo unspecified)	inactive
CCOC(=O)c1cncn1C(C)c1ccccc1 (stereo unspecified)	inactive

So what's the measured activity change, negative = cytotoxicity for this one? "O=C(O)c1cc(I)cc(I)c1I" inactive

So what's the measured activity change, negative = cytotoxicity for this one? "CON(C)C(=O)Nc1ccc(Cl)cc1" inactive

So what's the measured activity change, negative = cytotoxicity for this one? "COC(=O)C1(O)c2ccccc2-c2ccccc21" inactive

So what's the measured activity change, negative = cytotoxicity for this one? "Nc1ccc2c(c1)Cc1ccccc1-2" inactive

So what's the measured activity change, negative = cytotoxicity for this one? "C=CCOC(=O)C(C)(C)OC(=O)c1cc(-n2c(=O)cc(C(F)(F)F)n(C)c2=O)ccc1Cl" inactive

So what's the measured activity change, negative = cytotoxicity for this one? "O=C(O)CCCOc1ccc(Cl)cc1Cl" inactive

So what's the measured activity change, negative = cytotoxicity for this one? CC(C)(C)NCC(O)c1ccccc1Cl (stereo unspecified) inactive

So what's the measured activity change, negative = cytotoxicity for this one? "O=C([O-])c1ccccn1.O=C([O-])c1ccccn1.O=C([O-])c1ccccn1.[Cr+3]" inactive

----------
testName: qHTS assay for identifying genotoxic compounds that show differential cytotoxicity against isogenic chicken DT40 cell lines with known DNA damage response pathways - Rev3 mutant cell line (AID 743014); note: nearly all actives have a fitted effect of over 55% in size; note: potency is the fitted concentration of half-maximal effect
measurementContext: chicken DT40 Rev3-/- viability, CellTiter-Glo, 40 h; series mostly up to 68.4 µM
Records with an inconclusive call do not appear. Activity calls are given as the source filed them. The call rests on the fitted dose curve; in most records, active means well fitted cell-killing curve with a large enough effect in the repeat runs; inconclusive means weak or mixed curves, or effect the other way; inactive means no such curve, though single readings can be large or run the other way.
property: Potency

For orientation, consider the following solved cases.
N#CC(C#N)=Cc1ccc(O)c(O)c1	26.6 µM (active)
Cc1ccccc1	inactive
O=C(N[C@H]1CN2CCC1CC2)c1ccc2c(c1)OCCO2	inactive
Cc1ccc2c(C)cccc2c1	inactive

So what's the measured Potency for this one? "CCCCCCCCP(=O)(O)O" inactive

So what's the measured Potency for this one? "Cc1nnc(-c2ccccc2)c(=O)n1N" inactive

So what's the measured Potency for this one? "Nc1cc(Cl)cc(C(=O)O)c1Cl" inactive

So what's the measured Potency for this one? "O=C(O)c1cc(I)cc(I)c1I" inactive

----------
testName: A CellTox Green Cytotoxicity Assay to monitor cytotoxicity in HepG2 cells - 0 hour (AID 1224882); note: nearly all actives have a fitted effect of over 35% in size
measurementContext: CellTox Green fluorescence; series mostly up to 76.8 µM
Active and inactive are the calls of the source. Calls come from the whole dose curve; as a rule, active = well fitted activation curve with a large enough effect in the repeat runs; inconclusive = weak or mixed curves; inactive = flat fitted curve, though single readings scatter.
Give your call using only these classes: label 1 (active), label 0 (inactive)

Solved cases below.
CCOC(C(=O)OCCN(C)C)(c1ccccc1)c1ccccc1	label 0
CCCN(CCOc1c(Cl)cc(Cl)cc1Cl)C(=O)n1ccnc1	label 0
C=CCN1C[C@H](C)N([C@H](c2ccc(C(=O)N(CC)CC)cc2)c2cccc(OC)c2)C[C@H]1C	label 0
O=C(CCl)CCl	label 0
CCCCC(CC)COC(=O)c1c(Br)c(Br)c(Br)c(Br)c1C(=O)OCC(CC)CCCC (stereo not given)	label 0
CN[C@@H](C)[C@H](O)c1ccccc1	label 0

Could you check what this test reported for "Cc1nnc(-c2ccccc2)c(=O)n1N" ? label 0

Could you check what this test reported for "C=CCSSCC=C" ? label 0

----------
testName: qHTS assay for identifying genotoxic compounds that show differential cytotoxicity against isogenic chicken DT40 cell lines with known DNA damage response pathways - Rad54/Ku70 mutant cell line (AID 743015); note: nearly all actives have a fitted effect of over 60% in size
measurementContext: DT40 Rad54/Ku70 mutant viability, CellTiter-Glo, 40 h; series mostly up to 66.8 µM
Inconclusive results are not listed. Active and inactive are the calls of the source. Calls follow the shape of the dose curve; as a rule, active = well fitted cell-killing curve with a large enough effect in the repeat runs; inconclusive = weak or mixed curves; inactive = no such curve, though single readings can be large or run the other way.
Give your call using only these classes: active, inactive

Could you check what this test reported for CCOP(=O)(SC(C)CC)N1CCSC1=O (stereo unspecified) ? inactive

Could you check what this test reported for O=C(O)C(O)C(O)C(=O)O (stereo unspecified) ? inactive

Could you check what this test reported for "O=S(=O)(Cl)Cl" ? inactive

Could you check what this test reported for "CCCN(CCC)C(=O)Cc1c(-c2ccc(Cl)cc2)nc2ccc(Cl)cn12" ? inactive

Could you check what this test reported for CCCCC1C(=O)NC(=O)N(C2CCCCC2)C1=O (stereo unspecified) ? inactive

Could you check what this test reported for "O=C(O)c1cc(Cl)ccc1Cl" ? inactive

Could you check what this test reported for "CCC1(CC)C(=O)NC(=O)NC1=O" ? inactive

Could you check what this test reported for "C=CCOC(=O)C(C)(C)OC(=O)c1cc(-n2c(=O)cc(C(F)(F)F)n(C)c2=O)ccc1Cl" ? active

Could you check what this test reported for CCCC[P+](CC)(CCCC)CCCC (tested in a mixture with another compound) ? active

Could you check what this test reported for "NNCCO" ? inactive

Could you check what this test reported for CCCCC(CC)COC(=O)c1c(Br)c(Br)c(Br)c(Br)c1C(=O)OCC(CC)CCCC (stereo unspecified) ? inactive

Could you check what this test reported for O=C(NCNC(=O)NC1C(=O)NC(=O)N1CO)NC1C(=O)NC(=O)N1CO (stereo unspecified) ? inactive

----------
testName: qHTS assay to identify small molecule antagonists of the retinoid-related orphan receptor gamma (ROR-gamma) signaling pathway - cell viability counter screen (AID 1159520); note: nearly all actives have a fitted effect of over 50% in size
measurementContext: Tet-on RORgamma CHO cells viability, ATP luminescence, 16 h; series mostly up to 92.4 µM
Records with an inconclusive call do not appear. The source made the active and inactive calls. Calls follow the shape of the dose curve; as a rule, active = well fitted cell-killing curve with a large enough effect in the repeat runs; inconclusive = weak or mixed curves, or effect the other way; inactive = no such curve, though single readings can be large or run the other way.
Give your call using only these classes: t = active, f = inactive

Solved cases below.
NCCc1cc(O)c(O)cc1O	f
Clc1ccccc1	f

Could you check what this test reported for "CC(C)(C#N)C(C)(C)C#N" ? f

Could you check what this test reported for "O=C(CCl)CCl" ? t

Could you check what this test reported for "Cc1ccc(N)c(C)c1" ? f

----------
systemName: Cytochrome P450 2C9 (Homo sapiens) (UniProt P11712)
Sequence (P11712 whole entry, looked up): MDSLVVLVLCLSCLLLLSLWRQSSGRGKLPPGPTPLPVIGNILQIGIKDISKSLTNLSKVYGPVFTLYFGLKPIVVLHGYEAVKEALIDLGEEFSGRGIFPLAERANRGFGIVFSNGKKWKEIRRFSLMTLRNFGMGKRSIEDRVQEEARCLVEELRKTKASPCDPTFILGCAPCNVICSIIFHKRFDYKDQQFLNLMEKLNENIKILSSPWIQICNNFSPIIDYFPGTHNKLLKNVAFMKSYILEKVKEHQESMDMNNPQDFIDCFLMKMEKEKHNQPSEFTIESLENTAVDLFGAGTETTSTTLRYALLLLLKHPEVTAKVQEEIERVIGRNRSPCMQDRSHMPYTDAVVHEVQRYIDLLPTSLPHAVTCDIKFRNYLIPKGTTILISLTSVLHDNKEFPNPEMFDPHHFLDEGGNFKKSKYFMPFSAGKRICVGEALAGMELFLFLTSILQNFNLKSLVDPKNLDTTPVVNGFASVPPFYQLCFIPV
testName: Cytochrome P450 Family 2 Subfamily C Member 9 (CYP2C9) small molecule antagonists: luciferase reporter qHTS assay (AID 1671198); note: nearly all actives have a fitted effect of over 50% in size
measurementContext: P450-Glo CYP2C9 enzyme assay, luciferin luminescence; series mostly up to 115 µM
Records with an inconclusive call do not appear. Calls of active or inactive are those of the source. The call rests on the fitted dose curve; in most records, active means well fitted inhibition curve with a large enough effect in the repeat runs; inconclusive means weak or mixed curves; inactive means no such curve, though single readings can be large or run the other way.
Give your call using only these classes: active, inactive

Solved cases below.
CCOC(=O)c1cn2nc(OP(=S)(OCC)OCC)cc2nc1C	active
CC(C)(C)NCC(O)c1cc(Cl)c(N)c(C(F)(F)F)c1 (configuration not stated)	inactive
COc1cc(C[C@@H](C)N)c(OC)cc1Br	inactive
CCCCCBr	inactive
CCCC[N+]1(C)[C@@H]2CC(OC(=O)[C@H](CO)c3ccccc3)C[C@H]1[C@@H]1O[C@@H]12 (some centres not stated)	inactive
CCOP(=S)(S)OCC	active
O=C1CC[C@@]2(O)[C@H]3Cc4ccc(O)c5c4[C@@]2(CCN3CC2CC2)[C@H]1O5	inactive
C[C@H](N)[C@H](O)c1ccc(O)c(O)c1	inactive

Could you check what this test reported for "c1ccc2c(c1)sc1ccccc12" ? inactive

Could you check what this test reported for "CN(C)N" ? inactive

Could you check what this test reported for "CC(C)(C)c1ccc(CCOc2ncnc3ccccc23)cc1" ? inactive

----------
testName: qHTS assay to identify small molecule antagonists of the progesterone receptor (PR) signaling pathway - cell viability counter screen (AID 1346798); note: nearly all actives have a fitted effect of over 50% in size
measurementContext: PR-UAS-bla HEK293T viability, CellTiter-Glo luminescence, 16 h; series mostly up to 92.4 µM
Records with an inconclusive call do not appear. The source made the active and inactive calls. Calls come from the whole dose curve; as a rule, active = well fitted cell-killing curve with a large enough effect in the repeat runs; inconclusive = weak or mixed curves, or effect the other way; inactive = no such curve, though single readings can be large or run the other way.
Give your call using only these classes: active, inactive

C=CCOC(=O)C(C)(C)OC(=O)c1cc(-n2c(=O)cc(C(F)(F)F)n(C)c2=O)ccc1Cl	inactive
N#CC1(N=NC2(C#N)CCCCC2)CCCCC1	inactive
O=C([O-])c1ccccn1.O=C([O-])c1ccccn1.O=C([O-])c1ccccn1.[Cr+3]	inactive
CC(=O)NNc1ccccc1	active
COc1ccccc1N1CCNCC1	inactive
O=CC=O	inactive

Could you check what this test reported for "CCC(C)(C)O" ? inactive

Could you check what this test reported for "C[Si](Cn1cncn1)(c1ccc(F)cc1)c1ccc(F)cc1" ? inactive

Could you check what this test reported for C[N+](C)(C)CC1CO1 (stereo unspecified) ? inactive

Could you check what this test reported for "CC(C)OC(=O)Cc1ccccc1" ? inactive

Could you check what this test reported for CCc1cnc(C2=NC(C)(C(C)C)C(=O)N2)c(C(=O)O)c1 (stereo unspecified) ? inactive
